# EC50 listing for each entry below
Tgt: T1, Recombinant Human IL-1α (human, UniProt P01583 113-271)
T1 construct: Bought recombinant protein; Biotinylated in the capture ELISA; also called hIL-1α; IL-1 alpha
T1 sequence (looked up): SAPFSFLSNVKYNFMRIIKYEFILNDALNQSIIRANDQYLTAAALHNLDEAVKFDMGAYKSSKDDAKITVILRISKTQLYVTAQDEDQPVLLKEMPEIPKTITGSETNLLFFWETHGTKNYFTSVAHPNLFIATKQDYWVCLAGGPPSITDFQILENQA
Experimental protocol: capture ELISA: antibody captured by anti-human Fc, biotinylated antigen titrated
Measured metric: EC50 (nM)

>>> data_value("3D12.8 (antibody, human IgG1, kappa, L234A L235A, V domains shown, Parent anti-IL-1α antibody; also called 3D12.8VH; 3D12.8VL) VH: EIQLVQSGSELKKPGASVKVSCKASGYTFTNYGMNWVRQAPGQDLERMAWINTYTGESTYADDFKGRFVFSLDTSVSTAYLQISSLKAEDTAVYFCARGIYYYGSSYAMDYWGQGTTVTVSS VL: DIQMTQSPSSLSASVGDRVTITCRASQDISNCLNWYQQKPGKTPKLLIYYTSRLHSGVPSRFSGSGSGTDYTFTISSLQPEDIATYFCQQGKTLPYAFGQGTKLEIKR")
0.028
>>> data_value("3D12.10/15 (antibody, human IgG1, kappa, L234A L235A, V domains shown, Parent anti-IL-1α antibody; also called 3D12 10/15VH; 3D12 10/15VL) VH: EVQLVQSGAEVKKPGVSVKVSCKASGYTFTTYGMHWVRQAPGQGLEWMGWINTYTGESTYADDFQGRVTFTLDTSTSTAYMELSSLRSEDTAVYFCARGIYYYGSSYAMNYWGQGTTVTVSS VL: DIQMTQSPSSLSASVGDRVTITCRASQDISNMLNWYQQKPGKTPKLLIYYTSRLYPGVPSRFSGSGSGTDYTFTISSLQPEDIATYFCQQGKTLPYAFGQGTKLEIKR")
0.007
>>> data_value("3D12r16 (antibody, human IgG1, kappa, L234A L235A, V domains shown, Parent anti-IL-1α antibody; also called 3D12r16VH; 3D12r16VL) VH: EVQLVQSGAEVKKPGASVKVSCKASGYTFKYYGMNWVRQAPGQGLERMGWINTYTGQSTYADDFKGRVTFTLDTSTSTAYMELSSLRSEDTAVYYCARDIYYYGSDFAMDYWGQGTTVTVSS VL: DIQMTQSPSSLSASVGDRVTITCRASQDISNMLNWYQQKPGKAPKLLIYYTSRLKPGVPSRFSGSGSGTDYTFTISSLQPEDIATYFCQQGKTAPYTFGQGTKLEIKR")
0.072

The measured values listed here are drawn from patent US20120189541A1.
